Target: Matrix-associated proTGFβ1
Experiment: Octet binding, ECM average of hLTBP1 and hLTBP3 complexes
Set-up: species or system human
Conditions: average KD of (B) and (C), read-out: (D) ECM AVRG
metric: pKd
Please treat pKd as minus the base-10 logarithm of the molar concentration.

Check out these entries, answers already filled in.
[[record]]
molecule = "Ab15: monoclonal antibody binding proTGFβ1 complexes; VH SEQ ID NO: 226, VL SEQ ID NO: 15 (antibody, V domains shown) VH: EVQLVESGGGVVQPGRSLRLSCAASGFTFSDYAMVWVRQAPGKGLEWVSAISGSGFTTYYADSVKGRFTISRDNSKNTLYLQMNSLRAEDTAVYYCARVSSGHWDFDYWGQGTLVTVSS VL: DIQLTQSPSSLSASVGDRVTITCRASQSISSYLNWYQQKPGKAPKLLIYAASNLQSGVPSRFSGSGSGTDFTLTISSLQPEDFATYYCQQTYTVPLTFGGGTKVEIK"
data_value = 9.80

[[record]]
molecule = "Ab17: monoclonal antibody binding proTGFβ1 complexes; VH SEQ ID NO: 230, VL SEQ ID NO: 15 (antibody, V domains shown) VH: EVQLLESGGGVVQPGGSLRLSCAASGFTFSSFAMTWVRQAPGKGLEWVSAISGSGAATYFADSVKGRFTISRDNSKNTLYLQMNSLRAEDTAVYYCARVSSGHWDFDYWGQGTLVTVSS VL: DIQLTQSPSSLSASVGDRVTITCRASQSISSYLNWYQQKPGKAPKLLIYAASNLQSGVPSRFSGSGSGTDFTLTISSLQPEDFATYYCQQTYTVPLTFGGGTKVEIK"
data_value = 9.72

[[record]]
molecule = "Ab12: monoclonal antibody binding proTGFβ1 complexes; VH SEQ ID NO: 212, VL SEQ ID NO: 15 (antibody, V domains shown) VH: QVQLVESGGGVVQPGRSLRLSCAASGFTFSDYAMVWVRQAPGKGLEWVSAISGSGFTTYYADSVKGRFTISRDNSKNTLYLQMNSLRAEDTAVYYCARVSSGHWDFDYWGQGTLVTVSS VL: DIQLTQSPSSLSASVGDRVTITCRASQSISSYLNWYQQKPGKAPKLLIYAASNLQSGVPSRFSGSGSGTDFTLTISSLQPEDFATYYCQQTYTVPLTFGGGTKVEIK"
data_value = 9.77

[[record]]
molecule = "Ab20: monoclonal antibody binding proTGFβ1 complexes; VH SEQ ID NO: 236, VL SEQ ID NO: 15 (antibody, V domains shown) VH: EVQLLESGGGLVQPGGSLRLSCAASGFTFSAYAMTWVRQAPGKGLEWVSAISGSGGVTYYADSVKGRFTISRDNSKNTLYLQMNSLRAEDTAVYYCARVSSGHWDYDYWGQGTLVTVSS VL: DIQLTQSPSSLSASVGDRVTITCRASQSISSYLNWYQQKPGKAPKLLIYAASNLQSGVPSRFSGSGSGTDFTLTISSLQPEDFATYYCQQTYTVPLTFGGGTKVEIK"
data_value = 9.79

[[record]]
molecule = "Ab13: monoclonal antibody binding proTGFβ1 complexes; VH SEQ ID NO: 222, VL SEQ ID NO: 223 (antibody, V domains shown) VH: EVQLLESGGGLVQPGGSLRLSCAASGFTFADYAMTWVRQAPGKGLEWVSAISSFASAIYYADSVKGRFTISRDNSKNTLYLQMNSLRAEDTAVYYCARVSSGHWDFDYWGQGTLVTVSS VL: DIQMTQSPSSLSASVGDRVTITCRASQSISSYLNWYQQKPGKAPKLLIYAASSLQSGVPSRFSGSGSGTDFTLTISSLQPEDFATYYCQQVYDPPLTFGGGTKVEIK"
data_value = 9.58


Value of pKd reported for the molecule Ab2: isoform-selective inhibitor of TGFβ1 activation; VH SEQ ID NO: 13, VL SEQ ID NO: 15; human IgG4 (antibody, V domains shown, human IgG4 constant regions) VH: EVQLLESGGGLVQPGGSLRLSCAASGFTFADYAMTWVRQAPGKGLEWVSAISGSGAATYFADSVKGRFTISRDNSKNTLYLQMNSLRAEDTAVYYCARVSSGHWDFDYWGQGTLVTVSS VL: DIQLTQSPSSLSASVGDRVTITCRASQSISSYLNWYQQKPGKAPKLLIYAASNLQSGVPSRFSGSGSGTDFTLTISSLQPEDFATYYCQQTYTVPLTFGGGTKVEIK is 9.81

Value of pKd reported for the molecule Ab14: monoclonal antibody binding proTGFβ1 complexes; VH SEQ ID NO: 224, VL SEQ ID NO: 223 (antibody, V domains shown) VH: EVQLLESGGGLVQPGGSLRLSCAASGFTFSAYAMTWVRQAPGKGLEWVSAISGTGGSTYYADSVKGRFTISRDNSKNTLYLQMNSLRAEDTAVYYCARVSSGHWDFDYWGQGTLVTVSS VL: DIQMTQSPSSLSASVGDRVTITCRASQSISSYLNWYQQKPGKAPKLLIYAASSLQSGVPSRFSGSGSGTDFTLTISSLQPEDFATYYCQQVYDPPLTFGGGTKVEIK is 9.47

Value of pKd reported for the molecule Ab11: monoclonal antibody binding proTGFβ1 complexes; VH SEQ ID NO: 216, VL SEQ ID NO: 15 (antibody, V domains shown) VH: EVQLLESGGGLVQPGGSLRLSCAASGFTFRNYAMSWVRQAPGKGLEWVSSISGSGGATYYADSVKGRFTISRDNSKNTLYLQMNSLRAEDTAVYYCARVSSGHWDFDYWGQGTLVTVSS VL: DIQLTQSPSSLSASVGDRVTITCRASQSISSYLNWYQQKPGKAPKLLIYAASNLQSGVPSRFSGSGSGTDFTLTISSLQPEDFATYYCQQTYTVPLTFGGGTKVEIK is 9.79

Value of pKd reported for the molecule Ab18: monoclonal antibody binding proTGFβ1 complexes; VH SEQ ID NO: 232, VL SEQ ID NO: 15 (antibody, V domains shown) VH: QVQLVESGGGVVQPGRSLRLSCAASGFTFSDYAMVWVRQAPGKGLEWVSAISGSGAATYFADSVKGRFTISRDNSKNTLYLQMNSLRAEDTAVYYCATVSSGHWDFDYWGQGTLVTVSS VL: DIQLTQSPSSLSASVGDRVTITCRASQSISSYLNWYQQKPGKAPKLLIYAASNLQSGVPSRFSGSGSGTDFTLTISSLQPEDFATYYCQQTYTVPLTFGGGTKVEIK is 9.55
